// reported IC50 for each item listed
- Test system: MM.1S cells
- Assay summary: Inhibitory effect on the proliferation of MM.1S, MTS cell viability test
- Type: cell-based
- Condition parameters: Homo sapiens, MM1.S, 168 h, multiple myeloma MM.1S cells, 7 days incubation, read-out: Tumor cell inhibitory activity

- Compound: "CC(=O)N[C@@H](CCCc1cccc2c1CN(C1CCC(=O)NC1=O)C2=O)C(=O)NC1C2CC3CC(C2)CC1C3 (stereo partly drawn)"
  IC50: "100 to 1000 nM"
- Compound: "CCc1cc(COCCCCOc2cccc3c2CN(C2CCC(=O)NC2=O)C3=O)c2ccccc2n1 (stereo not drawn)"
  IC50: "100 to 1000 nM"
- Compound: "O=C1CCC(N2Cc3c(CCCCCN4CCN(c5c(Cl)cccc5Cl)CC4)cccc3C2=O)C(=O)N1 (stereo not drawn)"
  IC50: "100 to 1000 nM"
- Compound: "[2H]c1c([2H])c([2H])c(N2CCN(CCCCc3cccc4c3CN(C3CCC(=O)NC3=O)C4=O)CC2)c([2H])c1[2H] (stereo not drawn)"
  IC50: "100 to 1000 nM"
- Compound: "N[C@@H](CCCc1cccc2c1CN(C1CCC(=O)NC1=O)C2=O)c1nc2ccncc2[nH]1 (stereo partly drawn)"
  IC50: "> 20000 nM"
- Compound: "O=C1CCC(N2Cc3c(CCCCCN4CCC5(C=Cc6ccccc65)CC4)cccc3C2=O)C(=O)N1 (stereo not drawn)"
  IC50: "100 to 1000 nM"
- Compound: "N[C@@H](CCCc1cccc2c1CN(C1CCC(=O)NC1=O)C2=O)C(=O)Nc1ccccc1-c1cccnc1 (stereo partly drawn)"
  IC50: "> 20000 nM"
- Compound: "O=C1CCC(N2Cc3c(CCCCCCOc4ccnc5ccccc45)cccc3C2=O)C(=O)N1 (stereo not drawn)"
  IC50: "< 100 nM"
- Compound: "N#CC1(c2ccc(OC(F)(F)F)cc2)CCN(CCCCCc2cccc3c2CN(C2CCC(=O)NC2=O)C3=O)CC1 (stereo not drawn)"
  IC50: "< 100 nM"
- Compound: "O=C1CCC(N2Cc3c(CCCCCN4CCC5(CC4)C(=O)Nc4ccc(F)cc45)cccc3C2=O)C(=O)N1 (stereo not drawn)"
  IC50: "100 to 1000 nM"

The compound identified as CCc1cc(OCCCCOc2cccc3c2CN(C2CCC(=O)NC2=O)C3=O)c2ccccc2n1 (stereo not drawn) registered its IC50 at < 100 nM

The compound identified as O=C1CCC(N2Cc3c(CCCCCN4CCC5(CC4)C(=O)Nc4ccccc45)cccc3C2=O)C(=O)N1 (stereo not drawn) registered its IC50 at < 100 nM

The compound identified as O=C1CCC(N2Cc3c(OCCCNC(=O)N4CCN(c5cccc(Cl)c5Cl)CC4)cccc3C2=O)C(=O)N1 (stereo not drawn) registered its IC50 at 1000 to 20000 nM

The compound identified as O=C1CCC(N2Cc3c(CCCCN4CCN(c5cc(Cl)ccc5Cl)CC4)cccc3C2=O)C(=O)N1 (stereo not drawn) registered its IC50 at 100 to 1000 nM

The compound identified as O=C1CCC(N2Cc3c(OCCCCN4CCN(c5cccc(Cl)c5Cl)CC4)cccc3C2=O)C(=O)N1 (stereo not drawn) registered its IC50 at 1000 to 20000 nM
